- measured target: RSV F on RSV subtype B virus (mKate-RSV B 18537) (respiratory syncytial virus B 18537, UniProt P13843 26-574)
- Sequence (P13843 26-574): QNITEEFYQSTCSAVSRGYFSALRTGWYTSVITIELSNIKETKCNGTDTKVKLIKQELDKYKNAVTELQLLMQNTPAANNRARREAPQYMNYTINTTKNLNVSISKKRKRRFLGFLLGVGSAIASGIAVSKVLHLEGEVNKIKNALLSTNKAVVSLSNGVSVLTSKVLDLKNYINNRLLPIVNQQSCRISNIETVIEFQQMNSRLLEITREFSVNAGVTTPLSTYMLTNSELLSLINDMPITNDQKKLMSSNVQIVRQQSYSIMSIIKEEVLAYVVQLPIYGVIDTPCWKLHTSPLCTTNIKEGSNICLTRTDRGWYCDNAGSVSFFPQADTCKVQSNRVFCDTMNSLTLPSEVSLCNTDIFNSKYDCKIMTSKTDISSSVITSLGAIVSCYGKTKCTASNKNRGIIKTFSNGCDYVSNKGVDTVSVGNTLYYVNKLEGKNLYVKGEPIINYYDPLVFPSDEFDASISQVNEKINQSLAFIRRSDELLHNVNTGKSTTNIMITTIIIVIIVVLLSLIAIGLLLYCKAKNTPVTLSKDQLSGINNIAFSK
- procedure details: cell-based or functional assay
Use fulfilled when the recorded Neut IC50 subtype B is no lower than 4 µg/mL; use not fulfilled when it is lower.

>  <binder>
ADI-14336 (antibody, V domains shown, full-length IgG; also called Ab 4) VH: EVQLLESGGEVKKPGASVKVSCKASGYTFTNYGISWVRQAPGQGLEWMGWISAYNGNTNYAQKLQGRVTMTTDTSTSTAYMEVRRLRSDDTAVYYCAREPPVIAAGDFQHWGQGTLVTVSS VL: DIVMTQTPLSLPVTLGQPASISCRSSQSLVHSDTNIYLSWFQQRPGQSPRRLIYKVSNRDSGVPDRFSGSGSGTDFTLRISRVEAEDVGVYYCMQGTHWPPDFGQGTRLEIK

>  <class assignment>
not fulfilled

$$$$
>  <binder>
ADI-24850 (antibody, V domains shown, full-length IgG) VH: QVQLVQSGGGLVKPGGSLRLSCAASGFTFSSYSMNWVRQAPGKGLEWVSSISSSSSYIYYADSVKGRFTISRDNAKNSLYLQMNSLRAEDTAVYYCAREDYGDYYYYYMDVWGKGTTVTVSS VL: QPVLTQPPSVSGAPGQRVTISCTGSSSNIGAGYDVHWYQQLPGTAPKLLIYGNSNRPSGVPDRFSGSKSGTSASLAITGLQAEDEADYYCQSYDSSLSGYVFGTGTKVTVL

>  <class assignment>
fulfilled

$$$$
>  <binder>
ADI-19480 (antibody, V domains shown, full-length IgG) VH: EVQLVESGGGLVKPGGSLRLSCAASGFTFSAYSMNWVRQAPGKGLEWVSSISSTTNYISYADSVKGRFTISRDNAKNSLYLQMNSLRAEDTAVYYCARDPKYYGLGTYYKDDYWGQGTLVTVSS VL: NFMLTQPHSVSESPGKTVTISCTRSGGSIASNYVQWYQQRPGSSPTTVIYEDNQRPSGVPDRFSGSIDSSFNSASLTVSGLKTEDEADYYCQSFDNNNRWVFGGGTKLTVL

>  <class assignment>
fulfilled

$$$$
>  <binder>
ADI-24817 (antibody, V domains shown, full-length IgG) VH: EVQLVESGGGLVKPGGSLRLSCAASGFTFSSYSMNWVRQAPGKGLEWVSSISSSSSYIYYADSVKGRFTISRDNAKNSLYLQMNSLRAEDTAVYYCARDSMALLYSNYWFDPWGQGTLVTVSS VL: QSVVTQPPSVSGAPGQRVTISCTGSSSNIGAGYDVHWYQQLPGTAPKLLIYGNSNRPSGVPDRFSGSKSGTSASLAITGLQAEDEADYYCQSYDSSLSGSVFGGGTKLTVL

>  <class assignment>
fulfilled

$$$$
>  <binder>
ADI-14374 (antibody, V domains shown, full-length IgG; also called Ab 42) VH: QVQLVQSGGVVVQPGGSLRLSCAASGFNFDDFTMHWVRQAPGKGLEWVSLITWDGGITYYADSVKGRFTISRDNGKNSLYLRMNSLRTEDTALYYCAKDGDRYSGYAFLDYWGQGTLVTVSS VL: SYELTQPPSVSVAPGKTARLTCGGNNIGSESVHWYQQRPGQAPVLVSYYNGDRPSGIAERISASKSGNTATLTIYRVEAGDEADYYCQVWHSSSDHFVFGTGTQLTVL

>  <class assignment>
not fulfilled

$$$$
